The measurements presented in this section are drawn from patent US20240376076A1.

Target: USP7, Active human recombinant protein (Homo sapiens)
Construct: purchased CP Lot; 20200225001
Assay: USP7 assay (Ubiquitin-Rhodamine 110 enzymatic assay)
Assay type: biochemical
Settings: read-out: IC50
Measured attribute: IC50

See these solved cases before continuing.
>  <Compound>
Cc1nc2c(=O)n(CC3(O)CCN(C(=O)C4CCN(CCNC(=O)c5ccc6c(Cl)ccnc6c5)CC4c4ccccc4)CC3)cnc2n1-c1ccc(F)cc1 (stereo not drawn)

>  <Endpoint result>
100 to 1000 nM

$$$$
>  <Compound>
CN1CCN(CCC(=O)Nc2ccc3c(=O)n(CC4(O)CCN(C(=O)C5CCN(c6cccc7c6CN(C#N)C7)C[C@H]5c5ccccc5)CC4)cnc3c2)CC1 (stereo partly drawn)

>  <Endpoint result>
100 to 1000 nM

$$$$
>  <Compound>
CN(C)CCCOc1ccc2c(=O)n(CC3(O)CCN(C(=O)[C@@H](CCCNC(=O)c4ccc5c(Cl)c(C(N)=O)cnc5c4)Cn4ccc(F)n4)CC3)cnc2c1

>  <Endpoint result>
< 20 nM

$$$$
>  <Compound>
CN(C)CCCOc1ccc2c(=O)n(CC3(O)CCN(C(=O)[C@H](CCCNC(=O)c4ccc5c(Cl)c(C6CC6)cnc5c4)Cc4ccccc4)CC3)cnc2c1

>  <Endpoint result>
< 20 nM

$$$$
>  <Compound>
O=C(NCCN1CC[C@@H](C(=O)N2CCC(O)(Cn3cnc4c(-c5ccc(Br)cc5)nsc4c3=O)CC2)[C@H](c2ccccc2)C1)c1ccc2c(Cl)ccnc2c1

>  <Endpoint result>
100 to 1000 nM

$$$$

// below: IC50 requested for another compound
Task item: Field: IC50 (USP7, Active human recombinant protein (Homo sapiens)). Entry: Nc1ccc(-n2ncc3c(=O)n(CC4(O)CCN(C(=O)C(CCCNC(=O)c5ccc6c(Cl)ccnc6c5)Cc5ccccc5)CC4)cnc32)cc1 (stereo not drawn)
Reply: < 20 nM

###

Test: mouse liver microsomal stability (Microsome Assay Protocol)
Format: in vitro ADME
Details: pH 7.4; mouse liver microsomes, NADPH, 37° C.; read-out: MLM t1/2, min
Measured attribute: log10 half-life at 1 µM (log10 of the value in min)
Use the decimal logarithm of half-life at 1 µM (min).

Recorded log10 half-life at 1 µM, per entry:
>  <Molecule>
CN(C)CCCOc1ccc2c(=O)n(CC3(O)CCN(C(=O)C(Cc4ccccc4)N(C)CCNC(=O)c4ccc5c(Cl)c(C(N)=O)cnc5c4)CC3)cnc2c1 (stereo not drawn)

>  <log10 half-life at 1 µM>
1.56

$$$$
>  <Molecule>
CN1CCN(CCC(=O)Nc2ccc3c(=O)n(CC4(O)CCN(C(=O)C(CCCNC(=O)c5ccc6c(Cl)cc(C7(F)CC7)nc6c5)Cc5ccccc5)CC4)cnc3c2)CC1 (stereo not drawn)

>  <log10 half-life at 1 µM>
1.27

$$$$
>  <Molecule>
Cn1nc2c(=O)n(CC3(O)CCN(C(=O)C(CCCNC(=O)c4ccc5c(Cl)ccnc5c4)Cc4ccccc4)CC3)cnc2c1-c1cccc(C#N)c1 (stereo not drawn)

>  <log10 half-life at 1 µM>
0.18

$$$$
>  <Molecule>
C=CC(=O)Nc1ccccc1N1CCC(C(=O)N2CCC(O)(Cn3cnc4cc(NC(=O)CCN5CCN(C)CC5)ccc4c3=O)CC2)C(c2ccccc2)C1 (stereo not drawn)

>  <log10 half-life at 1 µM>
1.43

$$$$
>  <Molecule>
CN(C)CCC(=O)Nc1ccc2c(=O)n(CC3(O)CCN(C(=O)C(CCCNC(=O)c4ccc5c(Cl)ccnc5n4)Cc4ccccc4)CC3)cnc2c1 (stereo not drawn)

>  <log10 half-life at 1 µM>
1.09

$$$$

Below are some molecules; for each one, tell me its log10 half-life at 1 µM.
1. CN(C)CCCOc1ccc2c(=O)n(CC3(O)CCN(C(=O)[C@H](CCCNC(=O)c4ccc5c(Cl)c(C#N)cnc5c4)Cc4ccccc4)CC3)cnc2c1
2. CN(C)CCCOc1ccc2c(=O)n(CC3(O)CCN(C(=O)C(CCNC(=O)c4ccc5c(Cl)c(C(N)=O)cnc5c4)Cc4ccccc4)CC3)cnc2c1 (stereo not drawn)
3. O=C(NCCN1CCC(C(=O)N2CCC(O)(Cn3cnc4cc(OCCN5CCNCC5)ccc4c3=O)CC2)C(c2ccccc2)C1)c1ccc2c(F)ccnc2c1 (stereo not drawn)

Reply:
1: 0.22; 2: 1.45; 3: 1.35

Can you give me log10 half-life at 1 µM for all of these, one by one?
1. CN1CCN(CCC(=O)Nc2ccc3c(=O)n(CC4(O)CCN(C(=O)C(CCCNC(=O)c5ccc6c(Cl)cc(-c7ccc(F)cc7)nc6c5)Cc5ccccc5)CC4)cnc3c2)CC1 (stereo not drawn)
2. CN(C)CCCOc1ccc2c(=O)n(CC3(O)CCN(C(=O)C(Cc4ccccc4)NCCNC(=O)c4ccc5c(Cl)c(C(N)=O)cnc5c4)CC3)cnc2c1 (stereo not drawn)
3. CN(C)CCC(=O)Nc1ccc2c(=O)n(CC3(O)CCN(C(=O)C(CCc4ncc(-c5ccc6c(Cl)ccnc6c5)o4)Cc4ccccc4)CC3)cnc2c1 (stereo not drawn)
4. CN(C)CCC(=O)Nc1ccc2c(=O)n(CC3(O)CCN(C(=O)C(CCCNC(=O)c4ccc5c(Cl)ccnc5c4)Cc4ccccc4)CC3)cnc2c1 (stereo not drawn)

Reply:
[1.36, 1.82, 0.24, 1.09]

Hi there! I need log10 half-life at 1 µM for each item below, if you can.
1. NC(=O)c1cnc2cc(C(=O)NCCCC(Cn3ccc(F)n3)C(=O)N3CCC(O)(Cn4cnc5ccccc5c4=O)CC3)ccc2c1Cl (stereo not drawn)
2. Cc1cc(Cl)c2ccc(C(=O)N3CCN(CC(=O)N4CCC(O)(Cn5cnc6cc(Cl)ccc6c5=O)CC4)CC3)cc2n1
3. CN(C)CCC(=O)Nc1ccc2c(=O)n(CC3(O)CCN(C(=O)C(CCCNC(=O)c4ccc5c(Cl)cc(C(N)=O)nc5c4)Cc4ccccc4)CC3)cnc2c1 (stereo not drawn)
4. CN(C)CCCOc1ccc2c(=O)n(CC3(O)CCN(C(=O)C(Cc4ccccc4)N(C)CCNC(=O)c4ccc5c(Cl)c(C(=O)NC6CC6)cnc5c4)CC3)cnc2c1 (stereo not drawn)
5. CN(C)CCCOc1ccc2c(=O)n(CC3(O)CCN(C(=O)[C@H](CCCNC(=O)c4ccc5c(Cl)cc(C6CC6)nc5c4)Cc4ccccc4)CC3)cnc2c1

Reply:
1. 0.81
2. 0.73
3. 1.74
4. 1.67
5. 1.43

###

Kindly supply the reported half-life at 1 µM values for the records listed here.
Assay: mouse liver microsomal stability (Microsome Assay Protocol)
Assay type: in vitro ADME
Conditions: pH 7.4; mouse liver microsomes, NADPH, 37° C.; read-out: MLM t1/2, min
One number for each entry, in min.

Sample answers from the record:
>  <Molecule>
CN(C)CCC(=O)Nc1ccc2c(=O)n(CC3(O)CCN(C(=O)C(CCCNC(=O)c4ccc5c(Cl)c6c(nc5c4)COCC6)Cc4ccccc4)CC3)cnc2c1 (stereo not drawn)

>  <Measured attribute>
half-life at 1 µM

>  <Endpoint result>
3.34

$$$$
>  <Molecule>
C=CS(=O)(=O)Nc1ccccc1-c1ccc(C(=O)N2CCC(O)(Cn3cnc4cc(NC(=O)CCN5CCN(C)CC5)ccc4c3=O)CC2)cc1

>  <Measured attribute>
half-life at 1 µM

>  <Endpoint result>
49.3

$$$$
>  <Molecule>
CN1CCN(CCC(=O)Nc2ccc3c(=O)n(CC4(O)CCN(C(=O)[C@@H](CCCNC(=O)c5ccc6c(Cl)c7c(nc6c5)CCCC7)Cc5ccccc5)CC4)cnc3c2)CC1

>  <Measured attribute>
half-life at 1 µM

>  <Endpoint result>
2

$$$$
>  <Molecule>
C=CC(=O)Nc1ccncc1N1CCC(C(=O)N2CCC(O)(Cn3cnc4cc(NC(=O)CCN5CCN(C)CC5)ccc4c3=O)CC2)C(c2ccccc2)C1 (stereo not drawn)

>  <Measured attribute>
half-life at 1 µM

>  <Endpoint result>
39

$$$$
>  <Molecule>
CN1CCN(c2ccc3c(=O)n(CC4(O)CCN(C(=O)[C@H](CCCNC(=O)c5ccc6c(Cl)cc(C7CC7)nc6c5)Cc5ccccc5)CC4)cnc3c2)CC1

>  <Measured attribute>
half-life at 1 µM

>  <Endpoint result>
3090

$$$$

Task item: Please report the recorded half-life at 1 µM for CN1CCN(CCOc2ccc3c(=O)n(CC4(O)CCN(C(=O)C(CCCNC(=O)c5ccc6c(Cl)ccnc6c5)Cc5ccccc5)CC4)cnc3c2)CC1 (stereo not drawn) .
Reply: 15.7

###

Biological target: USP7, Active human recombinant protein (Homo sapiens, UniProt Q93009)
Construct: purchased CP Lot; 20200225001
Sequence (Q93009 whole entry): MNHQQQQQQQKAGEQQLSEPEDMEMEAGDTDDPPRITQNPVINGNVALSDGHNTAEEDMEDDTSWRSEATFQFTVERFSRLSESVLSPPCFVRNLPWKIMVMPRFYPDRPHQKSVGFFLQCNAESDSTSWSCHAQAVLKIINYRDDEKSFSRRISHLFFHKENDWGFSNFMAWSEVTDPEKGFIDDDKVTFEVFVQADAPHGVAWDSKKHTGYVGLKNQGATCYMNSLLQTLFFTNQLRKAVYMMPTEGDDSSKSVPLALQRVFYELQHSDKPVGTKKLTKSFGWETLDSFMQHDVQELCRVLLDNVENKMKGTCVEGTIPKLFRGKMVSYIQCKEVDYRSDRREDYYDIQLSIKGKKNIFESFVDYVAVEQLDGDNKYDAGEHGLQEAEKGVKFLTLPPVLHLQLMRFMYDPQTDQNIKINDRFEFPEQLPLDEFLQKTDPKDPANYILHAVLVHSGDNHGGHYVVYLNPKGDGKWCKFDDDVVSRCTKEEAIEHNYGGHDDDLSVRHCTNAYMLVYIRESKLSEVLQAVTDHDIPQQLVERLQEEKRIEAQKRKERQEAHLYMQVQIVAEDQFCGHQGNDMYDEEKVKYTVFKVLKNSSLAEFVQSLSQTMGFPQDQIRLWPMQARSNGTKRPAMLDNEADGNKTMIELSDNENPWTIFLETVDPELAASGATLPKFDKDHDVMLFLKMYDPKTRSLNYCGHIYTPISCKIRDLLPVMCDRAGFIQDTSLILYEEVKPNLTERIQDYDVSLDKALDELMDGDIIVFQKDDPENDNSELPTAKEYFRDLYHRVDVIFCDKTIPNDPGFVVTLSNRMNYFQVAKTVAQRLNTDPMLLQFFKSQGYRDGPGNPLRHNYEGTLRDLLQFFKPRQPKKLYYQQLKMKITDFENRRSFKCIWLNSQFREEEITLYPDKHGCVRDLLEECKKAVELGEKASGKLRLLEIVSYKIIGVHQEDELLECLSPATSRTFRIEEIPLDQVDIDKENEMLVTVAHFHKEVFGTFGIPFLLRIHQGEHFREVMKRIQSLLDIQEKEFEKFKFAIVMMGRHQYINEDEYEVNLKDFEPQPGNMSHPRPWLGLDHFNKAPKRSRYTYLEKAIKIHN
Experiment: USP7 assay (Ubiquitin-Rhodamine 110 enzymatic assay)
Assay type: biochemical
Conditions: read-out: IC50
Measured attribute: IC50

Below, each entry is followed by its recorded IC50 result.
>  <Molecule>
CN1CCN(CCC(=O)Nc2ccc3c(=O)n(CC4(O)CCN(C(=O)[C@@H](CCCNC(=O)c5ccc6c(Cl)c7c(nc6c5)CCCC7)Cc5ccccc5)CC4)cnc3c2)CC1

>  <IC50>
< 20 nM

$$$$
>  <Molecule>
CNc1cc(Cl)nc2cc(C(=O)NCCCC(Cc3ccccc3)C(=O)N3CCC(O)(Cn4cnc5cc(NC(=O)CCN(C)C)ccc5c4=O)CC3)ccc12 (stereo not drawn)

>  <IC50>
20 to 100 nM

$$$$

Now consider the entry below.
Task item: Please look up its IC50: CN(C)CCCOc1ccc2c(=O)n(CC3(O)CCN(C(=O)[C@H](CCCNC(=O)c4ccc5c(Cl)cc(C6CC6)nc5c4)Cc4ccccc4)CC3)cnc2c1
Reply: < 20 nM
